Provide the reported inhibition at 1 h of each item.
- system: CYP51 (lanosterol 14-alpha demethylase) (Homo sapiens, UniProt Q16850)
- Sequence (Q16850 whole entry): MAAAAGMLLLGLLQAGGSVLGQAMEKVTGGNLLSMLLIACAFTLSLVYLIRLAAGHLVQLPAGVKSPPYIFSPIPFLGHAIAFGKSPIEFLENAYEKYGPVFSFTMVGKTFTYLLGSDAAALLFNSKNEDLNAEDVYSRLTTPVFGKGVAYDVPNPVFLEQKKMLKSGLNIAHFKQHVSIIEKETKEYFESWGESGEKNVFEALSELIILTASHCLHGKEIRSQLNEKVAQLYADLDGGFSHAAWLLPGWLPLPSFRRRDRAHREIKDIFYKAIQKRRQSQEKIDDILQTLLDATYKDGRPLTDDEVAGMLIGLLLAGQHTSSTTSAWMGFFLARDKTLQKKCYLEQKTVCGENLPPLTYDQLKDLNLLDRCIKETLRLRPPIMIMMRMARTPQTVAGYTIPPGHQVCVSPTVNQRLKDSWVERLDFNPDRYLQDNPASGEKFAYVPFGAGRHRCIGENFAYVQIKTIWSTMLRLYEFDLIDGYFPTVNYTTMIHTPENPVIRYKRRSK
- test-description: Inhibition of recombinant full length human CYP51 expressed in Escherichia coli at inhibitor/enzyme ratio 25/1 incubated for 1 hr using [3H] lanosterol as substrate by HPLC analysis relative to control
- test-context: probe [3H] lanosterol
The reply should contain only the number, in %.

Request: # get_value(readout='inhibition at 1 h', item= `O=C(N[C@@H](Cn1ccnc1)c1ccc(-c2ccc(F)cc2)cc1Cl)c1ccc(-c2nnc(-c3cc(F)cc(-c4ccccn4)c3)o2)cc1` )
Response: 95

Request: Would you kindly share the measured inhibition at 1 h for `O=C(N[C@@H](Cn1ccnc1)c1ccc(-c2ccc(F)cc2)cc1Cl)c1ccc(-c2nnc(-c3cc(Br)cc4ccccc34)o2)cc1` ?
Response: 25

Request: Report inhibition at 1 h for `COc1ccc(-c2cc(-c3ccc(F)cc3)ccc2[C@H](Cn2ccnc2)NC(=O)c2ccc(-c3nnc(-c4ccccc4)o3)cc2)cc1` please.
Response: 0

Request: Which inhibition at 1 h value is on record for `O=C(N[C@@H](Cn1ccnc1)c1ccc(-c2ccc(F)cc2)cc1F)c1ccc(-c2nnc(-c3ccccc3)o2)cc1` ?
Response: 33
